Each item that follows carries a reported % Change Compared to pH 7.4 + Calcium.
system: T1, recombinant, soluble human ASGR-1 (human, UniProt P07306 62-291)
T1 construct: biotinylated in the binning assay; also called soluble huASGR-1; Soluble ASGR-1 (Amgen)
T1 sequence: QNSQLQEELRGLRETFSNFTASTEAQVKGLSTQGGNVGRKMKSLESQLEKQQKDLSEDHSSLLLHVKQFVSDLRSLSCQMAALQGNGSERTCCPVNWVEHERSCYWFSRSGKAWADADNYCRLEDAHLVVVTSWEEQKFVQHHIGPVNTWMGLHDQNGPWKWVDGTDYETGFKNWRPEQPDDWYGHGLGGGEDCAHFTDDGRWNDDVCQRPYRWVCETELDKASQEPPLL
assayProcedure: Octet BLI dissociation, pH 7.4 minus calcium
Write the value in % as a bare number.

Below, 4 binders whose answers are already recorded.
INSERT INTO results (binder, measuredparameter, unitsymbol, experimentalresult) VALUES
  ('219H1 (antibody, V domains shown, hybridoma mAb) VH: QVQLVESGGGVVQPGRSLRLSCAASGFTFSRYGMHWVRQAPGKGLEWVAVIWYDGSNKHYADSVKGRFTISRDNSKNTLYLQMNSLRGEDTAVYYCARDRGVGYNGMDVWGQGTTVTVSS VL: DIQMTQSPSSQSASVGDRVTITCRASQGISNYLDWFQQKPGKAPKSLIYSASNLQSGVPSKFSGSRSGTDFTLTISSLQPEDFATYYCQHYSNYPLTFGGGTKVEIK', '% Change Compared to pH 7.4 + Calcium', '%', 2),
  ('190G11 (antibody, V domains shown, hybridoma mAb) VH: QVQLVESGGGVVQPGRSLRLSCAASGFTFSIYGMHWVRQAPGKGLEWVAVIWYDGSNKNYADSVKGRFTISRDNSKNTLYLQMNSLRAEDTAVYYCARDQGVGYDGLDVWGQGTTVTVSS VL: DIQMTQSPSSLSASVGDRVTITCRTSQGIGNYLAWFQQKPGKAPKSLLYKASSLQSGVPSKFSGSGSGTDFTLTISSLQPEDFATYYCQQYMTYPLTFGGGTKVEIK', '% Change Compared to pH 7.4 + Calcium', '%', -2),
  ('147E9 (antibody, V domains shown, hybridoma mAb) VH: EVQLVESGGGLVQPGGSLRLSCAASGFTFSSYSMNWVRQAPGKGLEWVSSISGRNTTIYYADSVKGRFTISRDNAKNSLYLQMNSLRDEDTAVYYCSRDRGSCWGQGTLVTVSS VL: DIQMTQSPSSLSASVGDRVTITCRASQDINNYLAWFQQKPGKAPKSLIVAASSLQSGVPSKFSGSGSGTDFTLTISSLQPEDFATYYCQQYNSYPLTFGGGTKVEIK', '% Change Compared to pH 7.4 + Calcium', '%', 5),
  ('198G3 (antibody, V domains shown, hybridoma mAb) VH: QVQLVESGGGVVQPGRSLKLSCAASGFTFSTYGMHWVRQAPGKGLEWVAVIWYDGTNKNYADSVKGRFTISRDNSKNTLCLQMNSLRAEDTAVYYCARDQGVGYDGLDVWGQGTTVTVSS VL: DIQMAQSPSSLSASVGDRVTITCRTSQGIGKYLAWFQQKPGKAPKSLLYKASSLQGGVPSKFSGSGSGTDFTLTISSLQPEDFATYYCQQYMTYPLTFGGGTKVEIK', '% Change Compared to pH 7.4 + Calcium', '%', -1);

Note: attention shifts to another entry.
Data request: For 197F2 (antibody, V domains shown, hybridoma mAb) VH: QVQLVESGGGVVQPGRSLRLSCAASGFTFSSYGMHWVRQAPGKGLEWVAVIWYDGSNKNYADSVKGRFTISRDNSKNTLYLQMNSLRAEDTAVYYCARDQGVGYDGLDVWGQGTTVTVSS VL: DIQMIQSPSSLSASVGDRVTITCRTSQGIGNYLAWFQQKPGKAPKSLLYKTSSLQSGVPSKFSGSGSGTDFTLTISSLQPEDFATYYFQQYITYPLTFGGGTKVEIK , write its % Change Compared to pH 7.4 + Calcium.
Data returned: 0
